These entries and their values trace back to patent US20180057596A1.

# Target or test system: T1, cynomolgus IL-4Rα HIS FLAG (cynomolgus)
# T1 construct: also called Cyno IL4Rα HIS FLAG; not shown: HIS and FLAG tags and any vector-encoded linker of the cynomolgus HIS FLAG construct
# T1 chain: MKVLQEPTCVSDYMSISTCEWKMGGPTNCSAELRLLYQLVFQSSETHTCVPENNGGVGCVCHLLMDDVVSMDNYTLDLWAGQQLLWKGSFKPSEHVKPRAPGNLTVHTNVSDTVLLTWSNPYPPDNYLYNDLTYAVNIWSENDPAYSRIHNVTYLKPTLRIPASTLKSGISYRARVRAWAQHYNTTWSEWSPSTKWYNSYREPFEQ
# Protocol details: SPR (BIAcore 2000), IgG captured on Protein G', receptor as analyte, 1:1 Langmuir
Metric name: kon (M⁻¹ s⁻¹)
Return type: number; implicit unit M⁻¹ s⁻¹.

input: Let me know recorded kon for Antibody 37GL IgG (antibody, V domains shown, germlined IgG; also called Antibody 37 (FGL)) VH: QVQLVQSGAEVKKPGASVKVSCKASGYAFTSYYMHWVRQAPGQGLEWMGIINPRGGSTSYAQKFQGRVTMTRDTSTSTVYMELSSLRSEDTAVYYCARGKYWMYDWGKGTLVTVSS VL: QSVLTQPPSVSAAPGQKVTISCSGGGSSIGNSYVSWYQQLPGTAPKLLIYDNNKRPSGIPDRFSGSKSGTSATLGITGLQTGDEADYYCGTWDTSPVWEWPFGTGTKLTVL , thanks.
output: 244000
